Data credit: ChEMBL document CHEMBL3124809

# PROTOCOL_DETAILS: Lipophilicity, log D of the compound at pH 7.4
# Format: physicochemical
# CONDITION_NOTES: buffer
PROPERTY_NAME: logD
Answers are plain numbers.

## Task Name the reported logD value associated with the molecule COCCNc1nc2ccc(C#CC3(O)CCCCC3)cc2n1-c1ccnc(N)n1
## Result 3.6

----------
# PROTOCOL_DETAILS: Apparent permeability across apical to basolateral side in MDCK cells
# Assay type: ADME, cell-based, Canis lupus familiaris
# CONDITION_NOTES: dog
PROPERTY_NAME: Papp A→B (nm/s)
Numbers only, in nm/s.

## Task Can you look up the measured Papp A→B of COCCNc1nc2ccc(C#CC3(O)CCCCC3)cc2n1-c1ccnc(N)n1 for me?
## Result 222

----------
# ASSAY_TARGET: Serine/threonine-protein kinase PAK 4 (Homo sapiens, UniProt O96013)
# Sequence (O96013 whole entry, the tested form may be a part): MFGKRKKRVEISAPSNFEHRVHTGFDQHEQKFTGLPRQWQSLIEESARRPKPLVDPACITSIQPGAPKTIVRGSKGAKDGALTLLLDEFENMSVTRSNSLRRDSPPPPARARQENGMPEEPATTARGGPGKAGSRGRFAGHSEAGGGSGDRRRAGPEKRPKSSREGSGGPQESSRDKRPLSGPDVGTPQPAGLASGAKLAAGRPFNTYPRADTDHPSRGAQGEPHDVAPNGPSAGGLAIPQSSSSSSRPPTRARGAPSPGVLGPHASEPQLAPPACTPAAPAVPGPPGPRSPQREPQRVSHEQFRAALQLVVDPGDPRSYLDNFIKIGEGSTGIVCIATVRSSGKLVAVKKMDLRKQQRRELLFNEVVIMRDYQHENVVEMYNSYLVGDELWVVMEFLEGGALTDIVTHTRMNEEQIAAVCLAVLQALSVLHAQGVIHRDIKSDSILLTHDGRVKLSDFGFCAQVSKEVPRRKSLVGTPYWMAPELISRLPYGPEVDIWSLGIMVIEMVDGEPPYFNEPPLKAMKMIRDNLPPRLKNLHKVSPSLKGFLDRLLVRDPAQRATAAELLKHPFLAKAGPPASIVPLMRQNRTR
# PROTOCOL_DETAILS: Binding affinity to N-terminal GST-tagged recombinant human PAK4 kinase domain expressed in Escherichia coli using KKRNRRLSVA as substrate preincubated for 10 mins followed by ATP addition measured after 60 mins by FRET-based Z'Lyte assay
PROPERTY_NAME: pKi
Answers are plain numbers, as −log10 of the molar value.

- CCNc1nc2ccc(C#CC(C)(C)O)cc2n1-c1ncnc(N)n1: 7.22
- Cc1nc2ccc(C#C[C@@]3(O)C[C@@H]4CC[C@H]3C4)cc2n1-c1ncnc(N)n1 (racemic): 6.72
- Cc1nc2ccc(C#CC(C)(C)O)cc2n1-c1ncnc(N)n1: 6.30
- CC(C)(O)C#Cc1ccc2cnn(-c3cc(N)ncn3)c2c1: 5.89

// each molecule listed below needs its pKi
1. Cc1nc2ccc(C#C[C@@](C)(O)c3nccs3)cc2n1-c1ncnc(N)n1
2. Cc1nc2ccc(C#CC(C)(O)CC3CC3)cc2n1-c1ncnc(N)n1 (racemic)
3. CC(C)(O)C#Cc1ccc2cnn(-c3ccnc(N)n3)c2c1
4. Cc1nc2ccc(C#CC3(O)CCCCC3)cc2n1-c1ncnc(N)n1

## Result
1: 6.22; 2: 6.17; 3: 6.92; 4: 7.17

Give pKi for all molecules that follow.
1. COCCNc1nc2ccc(C#CC(C)(C)O)cc2n1-c1ccnc(N)n1
2. Cc1cc([C@](C)(O)C#Cc2ccc3nc(C)n(-c4ncnc(N)n4)c3c2)no1

## Result
6.85
7.49

----------
# ASSAY_TARGET: Serine/threonine-protein kinase PAK 3 (Homo sapiens, UniProt O75914)
# Sequence (O75914 whole entry): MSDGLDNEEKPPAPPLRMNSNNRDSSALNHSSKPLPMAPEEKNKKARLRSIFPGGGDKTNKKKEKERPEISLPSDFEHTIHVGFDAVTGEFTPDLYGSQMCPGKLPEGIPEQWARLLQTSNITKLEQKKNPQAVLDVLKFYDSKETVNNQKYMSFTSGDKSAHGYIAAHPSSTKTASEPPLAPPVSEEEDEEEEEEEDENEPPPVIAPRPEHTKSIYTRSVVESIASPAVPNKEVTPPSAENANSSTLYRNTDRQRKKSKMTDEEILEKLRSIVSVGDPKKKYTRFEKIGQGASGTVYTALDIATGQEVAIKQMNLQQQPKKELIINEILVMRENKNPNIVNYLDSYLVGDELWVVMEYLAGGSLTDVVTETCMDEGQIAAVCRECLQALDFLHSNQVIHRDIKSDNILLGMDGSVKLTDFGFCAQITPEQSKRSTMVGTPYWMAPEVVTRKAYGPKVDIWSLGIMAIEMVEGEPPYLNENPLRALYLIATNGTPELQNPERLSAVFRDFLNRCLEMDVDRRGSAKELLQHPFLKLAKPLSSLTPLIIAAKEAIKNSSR
pIC50: −log10 of the molar value.
PROPERTY_NAME: pIC50

## Task Which pIC50 value is on record for COCCNc1nc2ccc(C#CC3(O)CCCCC3)cc2n1-c1ccnc(N)n1 ?
## Result < 5.00

----------
# ASSAY_TARGET: Serine/threonine-protein kinase PAK 4 (Homo sapiens)
# PROTOCOL_DETAILS: Binding affinity to N-terminal GST-tagged recombinant human PAK4 kinase domain expressed in Escherichia coli using KKRNRRLSVA as substrate preincubated for 10 mins followed by ATP addition measured after 60 mins by FRET-based Z'Lyte assay
pKi: −log10 of the molar value.
Task for the reader: assign each of the following compounds its reported pKi.

# count of solved cases: 4
• Cc1nc2ccc(C#CC(C)(O)CO)cc2n1-c1ncnc(N)n1 (racemic) = < 5.54
• Cc1nc2ccc(C#CC3(O)COC3)cc2n1-c1ncnc(N)n1 = < 5.54
• Cc1nc2ccc(C#CC(C)(C)CO)cc2n1-c1ncnc(N)n1 = < 5.54
• Cc1nc2ccc(C#CC3(O)CCCOC3)cc2n1-c1ncnc(N)n1 (racemic) = < 5.54

With those in mind, consider the next compound.
## Task Entry under review: Cc1nc2ccc(C#CC(C)(O)c3ncccn3)cc2n1-c1ncnc(N)n1 (racemic) . Reported pKi?
## Result < 5.54
